B1: High mobility group protein B1, P63159 (parent)
chain: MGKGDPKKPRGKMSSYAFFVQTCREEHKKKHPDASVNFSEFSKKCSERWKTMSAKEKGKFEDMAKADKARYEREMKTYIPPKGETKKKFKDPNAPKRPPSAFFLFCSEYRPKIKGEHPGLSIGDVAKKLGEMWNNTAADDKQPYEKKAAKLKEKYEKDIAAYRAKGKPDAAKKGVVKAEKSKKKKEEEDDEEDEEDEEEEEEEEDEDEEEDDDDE

Variants of: B1
Details: Rattus norvegicus; pH 7; 20 °C; Thermal; CD; HEPES 10 mM; structure 1HME; whole UniProt chain shown
Observable: unfolding free energy

The following variants have reported results that may help.
I122H: 1.74 kcal/mol
S121H: 0.85 kcal/mol
G123H: 2.36 kcal/mol

Turning now to a further variant:
Recorded unfolding free energy for D139H , please?
2.97 kcal/mol
